# Target desc: human EAAT3 (Homo sapiens, UniProt P43005)
# Construct: expressed in transfected cells
# Sequence (P43005 1-524): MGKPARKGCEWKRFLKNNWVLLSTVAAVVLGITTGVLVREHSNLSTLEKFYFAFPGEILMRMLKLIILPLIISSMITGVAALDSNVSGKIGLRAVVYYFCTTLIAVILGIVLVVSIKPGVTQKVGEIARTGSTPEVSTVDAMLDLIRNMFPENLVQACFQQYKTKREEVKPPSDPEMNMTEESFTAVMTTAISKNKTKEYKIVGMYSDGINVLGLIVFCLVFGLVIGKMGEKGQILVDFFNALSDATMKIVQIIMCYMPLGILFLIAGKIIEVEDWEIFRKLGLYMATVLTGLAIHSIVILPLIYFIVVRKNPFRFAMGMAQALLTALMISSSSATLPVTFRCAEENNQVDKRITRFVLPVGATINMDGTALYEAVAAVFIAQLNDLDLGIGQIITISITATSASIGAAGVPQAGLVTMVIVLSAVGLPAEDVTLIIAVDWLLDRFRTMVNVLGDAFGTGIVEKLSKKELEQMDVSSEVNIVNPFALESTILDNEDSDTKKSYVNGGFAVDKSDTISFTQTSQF
# Assay summary: FLIPR Membrane Potential (FMP) assay, antagonist potency at human EAAT3
# Assay type: cell-based
# Run parameters: HEK-293 cells stably expressing human EAAT3; L-glutamate as agonist at EC80; antagonist applied 15 min before; Kb by Cheng-Prusoff equation
Reported endpoint: Kb (µM)

- Smiles data: "CC(C)c1ncncc1-c1cc(C(=O)NC(C)(C)C(F)(F)F)cc(-c2ccc(Cl)cc2)n1"
  Kb (µM): 0.27

a. Cc1ccncc1-c1cc(C(=O)NC(C)(C)C)cc(-c2ccc(F)cc2)n1
b. CC(C)c1ncncc1-c1cc(C(=O)NC(C)(C)C2CC2)cc(-c2ccc(Cl)cc2)n1
// query Which of the two gives a bigger number for Kb: a or b ? # reply format: chosen label
// result a
